# Tested on: SK-MEL-2 melanoma
# assayProtocol: NCI-60 one-dose screen, 48 h (100 = growth as untreated, 0 = no growth, -100 = all killed)
# conditionDescription: 10 µM unless noted
This is part of a sample that, as a whole, favours compounds with a hit. Of some 83,000 tested, about 20% had one in any assay. Active and inactive are the calls of the source. The calls were made as follows: active = growth percent below 10; inactive = the rest.
// reported growth per item

{"columns": ["molSmiles", "growth"],
 "data": [
  ["COc1ccc(/C=C/C(=O)c2ccc(NC(=O)CSc3nnc(-c4cc(-c5ccccc5)nc5ccccc45)n3-c3ccccc3)cc2)cc1", "107% (inactive)"],
  ["C=CCCC(=O)N1C=CC(=O)[C@H](O)[C@@H]1/C=C/c1ccccc1", "77.7% [100 µM] (inactive)"]
]}

Task: Read the entry CS(=O)(=O)Nc1cc(-c2ccc3ncnc(Nc4ccc5c(cnn5Cc5cccnc5)c4)c3c2)cnc1Cl and write its reported growth.
Output: 14% (inactive)

Task: Read the entry CCOC(=O)c1c(C)nc2ccccc2c1/C=C/c1ccc(OC)cc1 and write its reported growth.
Output: 64.3% (inactive)

Task: Read the entry COc1ccc(C2=Nc3c/c(=C\c4c(O)[nH]c5cc(Cl)ccc45)ccc3=N2)cc1 and write its reported growth.
Output: 54.4% (inactive)

---

# System: A498 renal
# assayProtocol: NCI-60 one-dose screen, 48 h
# conditionDescription: 10 µM unless noted
About 83,000 compounds went through this panel and 20% of them were active in at least one assay; those are over-represented in the sample as a whole. Active and inactive are the calls of the source. How the source made its calls: active means growth percent below 10; inactive means the rest.
Could you please pick one outcome from this set? Yes = active, No = inactive

Some solved cases for reference:
{"columns": ["compound", "classAssignment"],
 "data": [
  ["CC(C)(C)C(=O)/C=C/c1ccc([N+](=O)[O-])cc1", "No"],
  ["O=C1NC(=C(Cl)Cl)/C(=N/S(=O)(=O)NCCc2c[nH]c3ccccc23)N1", "No"],
  ["COc1ccc(C2=Nc3c/c(=C\\c4c(O)[nH]c5cc(Cl)ccc45)ccc3=N2)cc1", "No"]
]}

Task: # outcome recorded in this test, key = CCN1C(=O)N(CC)C2C1NN=c1s/c(=C\c3ccccc3Br)c(=O)n12 (stereo not given)
Output: Yes

Task: # outcome recorded in this test, key = C=CCn1c(SCC(=O)Nc2ccc(C(=O)/C=C/c3ccc(OC)cc3)cc2)nnc1-c1ccccc1
Output: No

---

# System: HCT-15 colon
# assayProtocol: NCI-60 one-dose screen, 48 h (100 = growth as untreated, 0 = no growth, -100 = all killed)
# conditionDescription: 10 µM unless noted
About 83,000 compounds went through this panel and 20% of them were active in at least one assay; those are over-represented in the sample as a whole.
assayMetric: growth (%)
# output: bare number, implied unit %

{"columns": ["compound", "unitLabel", "growth"],
 "data": [
  ["COc1ccc(/C=C/C(=O)c2ccc(Nc3nc(Nc4ccc(F)cc4)nc(Nc4ccc(Cl)cc4)n3)cc2)cc1", "%", 100]
]}

Task: Read the entry CCOC(=O)c1c(C)nc2c(c1N)CC(=O)N2Cc1cc(OC)c(OC)c(OC)c1 and write its reported growth.
Output: 28.5

Task: Read the entry CC1=NN(c2ccc(Cl)cc2)CC1(C)N=O (centres undefined) and write its reported growth.
Output: 27.4

Task: Read the entry CC(C)C[C@@H](C(=O)N[C@H](C(=O)OC1CCCC1)c1ccccc1)[C@H](O)C(=O)NO and write its reported growth.
Output: 58.4

Task: Read the entry C[C@@H]1CC[C@@]2(OC1)O[C@H]1C[C@H]3[C@@H]4CC=C5C[C@@H](O[C@@H]6O[C@H](CO)[C@@H](O[C@@H]7O[C@@H](CO)[C@H](O)[C@H]7O)[C@H](O)[C@H]6O[C@@H]6O[C@@H](C)[C@H](O)[C@@H](O)[C@H]6O)CC[C@]5(C)[C@H]4CC[C@]3(C)[C@H]1[C@@H]2C and write its reported growth.
Output: -84.8

Task: Read the entry COc1ccc(NC(=O)c2sc3nc(C)c(C(O)c4ccccc4)cc3c2N)cc1 (centres undefined) and write its reported growth.
Output: 24.9

Task: Read the entry Brc1ccc(-c2cnc3nonc3n2)cc1 and write its reported growth.
Output: 54.8

Task: Read the entry Oc1c(I)cc(-c2nc3ccccc3s2)cc1CN(Cc1ccccn1)Cc1ccccn1 and write its reported growth.
Output: 22

Task: Read the entry COc1cc(C#Cc2ccc(=O)oc2C#Cc2ccccc2)cc(OC)c1OC and write its reported growth.
Output: 61.4

Task: Read the entry Cc1c(Cl)cccc1C(=O)Nc1nc2c(s1)CN(C(=O)Nc1cccc(C(F)(F)F)c1)CC2 and write its reported growth.
Output: 11.8

Task: Read the entry CC1O[C@@H]2C[C@@](O)([C@H]1O)n1c3ccccc3c3c4c(c5c6ccccc6n2c5c31)C(=O)NC4=O (some centres undefined) and write its reported growth.
Output: 62

Data credit: PubChem BioAssay (NCI)
